These measurements were taken from ChEMBL document CHEMBL1141561.

- system-name: Receptor tyrosine-protein kinase erbB-2 (Homo sapiens)
- Sequence (P04626 whole entry): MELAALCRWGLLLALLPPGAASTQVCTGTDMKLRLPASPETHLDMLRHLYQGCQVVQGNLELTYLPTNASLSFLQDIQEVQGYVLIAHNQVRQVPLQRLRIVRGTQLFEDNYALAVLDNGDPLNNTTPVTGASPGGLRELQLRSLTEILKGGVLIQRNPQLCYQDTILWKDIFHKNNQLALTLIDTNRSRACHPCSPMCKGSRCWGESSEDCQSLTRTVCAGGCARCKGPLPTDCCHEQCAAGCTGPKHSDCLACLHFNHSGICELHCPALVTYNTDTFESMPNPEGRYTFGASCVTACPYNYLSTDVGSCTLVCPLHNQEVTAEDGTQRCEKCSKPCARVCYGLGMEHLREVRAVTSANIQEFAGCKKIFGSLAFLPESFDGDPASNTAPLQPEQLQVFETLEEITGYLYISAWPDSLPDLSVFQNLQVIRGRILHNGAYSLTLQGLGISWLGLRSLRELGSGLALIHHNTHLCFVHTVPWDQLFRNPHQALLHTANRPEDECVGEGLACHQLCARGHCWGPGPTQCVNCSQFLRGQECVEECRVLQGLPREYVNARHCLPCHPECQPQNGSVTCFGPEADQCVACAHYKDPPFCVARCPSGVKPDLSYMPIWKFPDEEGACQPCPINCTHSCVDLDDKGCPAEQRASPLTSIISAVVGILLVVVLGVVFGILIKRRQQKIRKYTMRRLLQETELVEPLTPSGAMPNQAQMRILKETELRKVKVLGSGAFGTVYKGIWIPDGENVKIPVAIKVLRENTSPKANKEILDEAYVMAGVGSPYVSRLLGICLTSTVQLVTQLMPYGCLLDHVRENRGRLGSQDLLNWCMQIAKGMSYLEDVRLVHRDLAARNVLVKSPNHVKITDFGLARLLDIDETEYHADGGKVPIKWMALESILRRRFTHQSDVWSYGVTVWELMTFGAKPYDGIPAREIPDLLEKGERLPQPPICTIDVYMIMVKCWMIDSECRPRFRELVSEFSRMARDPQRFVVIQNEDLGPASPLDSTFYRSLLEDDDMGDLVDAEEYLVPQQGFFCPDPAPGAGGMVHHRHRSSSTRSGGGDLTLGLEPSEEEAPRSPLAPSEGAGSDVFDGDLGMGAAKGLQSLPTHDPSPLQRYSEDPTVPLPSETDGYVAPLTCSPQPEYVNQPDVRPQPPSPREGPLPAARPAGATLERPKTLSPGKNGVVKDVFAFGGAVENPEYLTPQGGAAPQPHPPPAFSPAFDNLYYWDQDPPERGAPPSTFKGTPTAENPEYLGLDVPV
- assay-summary: Inhibition of ebrB2 expressed in human MCF7 cells by autophosphorylation assay
- Format: cell-based
pIC50: −log10 of the molar value.
measured-quantity: pIC50

For orientation, consider the following solved cases.
Cc1ccc(Oc2ccc(Nc3ncnc4cccc(O[C@H](C)C(=O)NCCO)c34)cc2C)cn1 :: 6.70
O=C(COc1cccc2ncnc(Nc3ccc(OCc4ccccn4)c(Cl)c3)c12)N1CCOCC1 :: 6.85
C[C@H](Oc1cccc2ncnc(Nc3ccc(OCc4ccccn4)c(Cl)c3)c12)C(=O)N(C)CCO :: 7.10
Cc1ccc(Oc2ccc(Nc3ncnc4cccc(O[C@H](C)C(=O)N(C)CCO)c34)cc2C)cn1 :: 7.16
C[C@@H](Oc1cccc2ncnc(Nc3ccc(OCc4ccccn4)c(Cl)c3)c12)C(=O)N(C)CCO :: 7.51

1: COc1cc(Nc2ncnc3cccc(O[C@H](C)C(=O)N4CCOCC4)c23)ccc1Oc1ccc(C)nc1
2: Cc1ccc(Oc2ccc(Nc3ncnc4cccc(O[C@@H](C)C(=O)N(C)CCO)c34)cc2C)cn1
3: NC(=O)COc1cccc2ncnc(Nc3ccc(OCc4ccccn4)c(Cl)c3)c12
Input line: Order each entry by recorded pIC50, climbing from the minimum. Response field: labels, in requested order.
Output line: 3, 2, 1
(3: 6.74, 2: 7.11, 1: 7.64)

###

- assay-summary: Fraction unbound ligand in Beagle dog at 0.2 mg/kg, iv and 0.4 mg/kg, po
- Format: ADME, organism-based, Canis lupus familiaris
- condition-details: in vivo
measured-quantity: fraction unbound

1: Cc1ccc(Oc2ccc(Nc3ncnc4cccc(O[C@H](C)C(=O)N(C)CCO)c34)cc2C)cn1
2: Cc1ccc(Oc2ccc(Nc3ncnc4cccc(O[C@H](C)C(=O)N(C)C)c34)cc2C)cn1
3: C[C@@H](Oc1cccc2ncnc(Nc3ccc(OCc4ccccn4)c(Cl)c3)c12)C(=O)N(C)C
Input line: Sort these molecules on fraction unbound so the largest reading comes first. Returns: the labels listed in the requested order.
Output line: 1, 2, 3
(1: 0.038, 2: 0.025, 3: 0.011)

###

- system-name: Epidermal growth factor receptor (Homo sapiens)
- Sequence (P00533 whole entry): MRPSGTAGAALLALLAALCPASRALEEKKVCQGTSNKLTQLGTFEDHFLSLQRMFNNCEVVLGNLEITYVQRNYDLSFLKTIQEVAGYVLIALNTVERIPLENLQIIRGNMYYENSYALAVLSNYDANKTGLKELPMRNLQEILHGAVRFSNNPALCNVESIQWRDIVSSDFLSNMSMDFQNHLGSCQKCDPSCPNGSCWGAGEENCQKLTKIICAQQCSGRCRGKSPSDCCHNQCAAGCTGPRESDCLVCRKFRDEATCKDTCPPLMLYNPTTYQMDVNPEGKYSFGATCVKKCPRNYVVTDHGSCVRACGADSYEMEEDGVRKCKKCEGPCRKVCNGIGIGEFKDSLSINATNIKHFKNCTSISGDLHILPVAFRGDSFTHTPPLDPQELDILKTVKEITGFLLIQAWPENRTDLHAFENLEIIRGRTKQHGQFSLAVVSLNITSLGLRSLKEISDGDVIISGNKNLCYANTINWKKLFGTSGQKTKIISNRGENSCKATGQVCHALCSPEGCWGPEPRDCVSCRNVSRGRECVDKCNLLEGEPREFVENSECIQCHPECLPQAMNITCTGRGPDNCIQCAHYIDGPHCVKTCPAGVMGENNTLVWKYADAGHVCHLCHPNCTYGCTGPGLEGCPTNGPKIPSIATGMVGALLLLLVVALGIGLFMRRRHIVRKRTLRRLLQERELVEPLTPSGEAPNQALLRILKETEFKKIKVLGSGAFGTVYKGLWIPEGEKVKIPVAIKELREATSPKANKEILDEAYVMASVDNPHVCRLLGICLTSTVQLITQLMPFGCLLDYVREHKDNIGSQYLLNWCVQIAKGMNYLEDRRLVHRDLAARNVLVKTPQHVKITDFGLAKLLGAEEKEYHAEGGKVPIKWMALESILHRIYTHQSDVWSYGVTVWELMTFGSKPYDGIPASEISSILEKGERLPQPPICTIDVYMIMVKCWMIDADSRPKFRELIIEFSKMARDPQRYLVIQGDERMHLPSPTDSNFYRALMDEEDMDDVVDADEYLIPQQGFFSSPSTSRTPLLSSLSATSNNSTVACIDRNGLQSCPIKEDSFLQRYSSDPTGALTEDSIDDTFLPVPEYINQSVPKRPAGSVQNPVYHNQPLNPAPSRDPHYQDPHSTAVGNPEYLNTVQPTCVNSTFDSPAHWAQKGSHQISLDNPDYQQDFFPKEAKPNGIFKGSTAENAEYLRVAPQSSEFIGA
measured-quantity: IC50 (nM)
Could you give me the number in nM? Just the number is fine.

Measured IC50 (Epidermal growth factor receptor (Homo sapiens)), entry C[C@@H](Oc1cccc2ncnc(Nc3ccc(OCc4ccccn4)c(Cl)c3)c12)C(=O)N(C)C : 22

###

- assay-summary: Bioavailability in Beagle dog at 0.2 mg/kg, iv and 0.4 mg/kg, po
- Type: ADME, organism-based, Canis lupus familiaris
- condition-details: in vivo
measured-quantity: bioavailability (%)

1: C[C@@H](Oc1cccc2ncnc(Nc3ccc(OCc4ccccn4)c(Cl)c3)c12)C(=O)N(C)C
2: Cc1ccc(Oc2ccc(Nc3ncnc4cccc(O[C@H](C)C(=O)N(C)CCO)c34)cc2C)cn1
Input line: # query: argmin of bioavailability over 1 and 2 I would appreciate it if you answered with the label of your choice.
Output line: 2
(2: 33%, 1: 89%)

###

- assay-summary: Fraction unbound ligand in Han Wistar rat plasma protein
- Format: ADME, cell-free
measured-quantity: fraction unbound

Cc1ccc(Oc2ccc(Nc3ncnc4cccc(O[C@H](C)C(=O)N(C)C)c34)cc2C)cn1 :: 0.017

A: Cc1ccc(Oc2ccc(Nc3ncnc4cccc(O[C@H](C)C(=O)N(C)CCO)c34)cc2C)cn1
B: C[C@@H](Oc1cccc2ncnc(Nc3ccc(OCc4ccccn4)c(Cl)c3)c12)C(=O)N(C)C
Input line: Given the listed items, does A or B have the lesser reported fraction unbound? Respond with the label that goes with your answer.
Output line: B
(B: 0.004, A: 0.029)
